- assayMethodText: Inhibition of human […]-RET kinase-V804M mutant in presence of [gamma33P]-ATP and 10 uM ATP by radiometric HotSpot assay
Give IC50 for every item shown.
Number only, in µM; omit the unit.

For "Cc1cn(-c2cc(NC(=O)c3cc(C#Cc4cnc5ccc(OCCN6CCOCC6)nn45)c(C)cc3F)cc(C(C)(C)C#N)c2)cn1" the compound record lists IC50 as 0.622

For "Cc1ccc(C(=O)Nc2cc(CN3CCN(C)CC3)cc(C(F)(F)F)c2)cc1C#Cc1cnc2ccc(Cl)nn12" the compound record lists IC50 as 0.281

For "Cc1ccc(C(=O)Nc2ccc(CN3CCN(C)CC3)c(C(F)(F)F)c2)cc1C#Cc1cnc2ccc(OCCN3CCOCC3)nn12" the compound record lists IC50 as 0.0845

---

- system: Proto-oncogene tyrosine-protein kinase receptor Ret (Homo sapiens, UniProt P07949, G810R)
- Sequence (P07949 29-1114 G810R limits assumed): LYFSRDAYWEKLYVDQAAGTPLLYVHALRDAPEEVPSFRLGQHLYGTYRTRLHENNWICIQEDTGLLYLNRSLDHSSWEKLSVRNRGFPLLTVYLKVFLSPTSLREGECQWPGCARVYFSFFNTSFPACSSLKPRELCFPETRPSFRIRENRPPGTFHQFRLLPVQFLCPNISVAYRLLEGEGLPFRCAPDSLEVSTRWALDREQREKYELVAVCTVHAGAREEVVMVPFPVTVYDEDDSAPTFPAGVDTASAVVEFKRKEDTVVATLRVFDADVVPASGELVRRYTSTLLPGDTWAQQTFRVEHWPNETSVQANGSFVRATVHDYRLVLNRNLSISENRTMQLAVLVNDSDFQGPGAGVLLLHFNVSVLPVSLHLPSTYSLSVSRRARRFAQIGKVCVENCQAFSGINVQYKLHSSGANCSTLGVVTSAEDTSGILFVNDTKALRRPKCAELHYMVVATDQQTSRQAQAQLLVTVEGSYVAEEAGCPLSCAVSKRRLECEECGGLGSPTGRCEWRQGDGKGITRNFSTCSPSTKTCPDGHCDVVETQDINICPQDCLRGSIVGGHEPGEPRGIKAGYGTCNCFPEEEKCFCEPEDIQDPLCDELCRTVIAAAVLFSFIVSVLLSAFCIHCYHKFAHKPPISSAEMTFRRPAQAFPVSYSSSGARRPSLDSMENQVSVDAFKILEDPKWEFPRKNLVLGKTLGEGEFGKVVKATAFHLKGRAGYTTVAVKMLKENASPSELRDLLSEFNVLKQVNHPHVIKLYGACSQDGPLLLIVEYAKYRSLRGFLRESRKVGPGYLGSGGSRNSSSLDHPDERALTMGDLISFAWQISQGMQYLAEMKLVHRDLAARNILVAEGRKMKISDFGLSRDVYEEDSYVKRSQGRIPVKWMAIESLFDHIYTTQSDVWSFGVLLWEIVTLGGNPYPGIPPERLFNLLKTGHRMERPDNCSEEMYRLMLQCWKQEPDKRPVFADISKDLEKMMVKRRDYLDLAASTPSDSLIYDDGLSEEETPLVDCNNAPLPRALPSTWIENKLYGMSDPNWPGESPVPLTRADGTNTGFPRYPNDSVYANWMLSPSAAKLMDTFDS
- assayMethodText: Inhibition of human RET kinase-G810R mutant using RRRRRRRRRRRVYSTDYYRLFNPS as substrate in presence of [gamma33P]-ATP and 10 uM ATP by radiometric HotSpot assay
pIC50: −log10 of the molar value.
Criterion: pIC50 meeting or surpassing 7. Met: fulfilled. Not met: not fulfilled.

Determine whether measured pIC50 meets or exceeds 7 for "Cc1ccc(C(=O)Nc2ccc(CN3CCN(C)CC3)c(C(F)(F)F)c2)cc1C#Cc1cnc2ccc(OCCNC(C)C)nn12"
fulfilled

Determine whether measured pIC50 meets or exceeds 7 for "Cc1ccc(C(=O)Nc2ccc(CN3CCN(C)CC3)c(C(F)(F)F)c2)cc1C#Cc1cnc2ccc(OCCN3CCOCC3)nn12"
fulfilled

Determine whether measured pIC50 meets or exceeds 7 for "Cc1ccc(C(=O)Nc2cc(CN3CCN(C)CC3)cc(C(F)(F)F)c2)cc1C#Cc1cnc2ccc(N3CCOCC3)nn12"
fulfilled

Determine whether measured pIC50 meets or exceeds 7 for "CCOC(=O)c1nc2ccc(Nc3cc(C)[nH]n3)nn2c1C#Cc1cc(C(=O)Nc2cc(-n3cnc(C)c3)cc(C(F)(F)F)c2)ccc1C"
not fulfilled

Determine whether measured pIC50 meets or exceeds 7 for "Cc1ccc(C(=O)Nc2cc(CN3CCN(C)CC3)cc(C(F)(F)F)c2)cc1C#Cc1cnc2ccc(Cl)nn12"
fulfilled

Determine whether measured pIC50 meets or exceeds 7 for "Cc1cn(-c2cc(NC(=O)c3cc(C#Cc4cnc5ccc(OCCN6CCOCC6)nn45)c(C)cc3F)cc(C(C)(C)C#N)c2)cn1"
not fulfilled

---

- system: Proto-oncogene tyrosine-protein kinase receptor Ret (Homo sapiens, UniProt P07949, V804M)
- Sequence (P07949 29-1114 V804M limits assumed): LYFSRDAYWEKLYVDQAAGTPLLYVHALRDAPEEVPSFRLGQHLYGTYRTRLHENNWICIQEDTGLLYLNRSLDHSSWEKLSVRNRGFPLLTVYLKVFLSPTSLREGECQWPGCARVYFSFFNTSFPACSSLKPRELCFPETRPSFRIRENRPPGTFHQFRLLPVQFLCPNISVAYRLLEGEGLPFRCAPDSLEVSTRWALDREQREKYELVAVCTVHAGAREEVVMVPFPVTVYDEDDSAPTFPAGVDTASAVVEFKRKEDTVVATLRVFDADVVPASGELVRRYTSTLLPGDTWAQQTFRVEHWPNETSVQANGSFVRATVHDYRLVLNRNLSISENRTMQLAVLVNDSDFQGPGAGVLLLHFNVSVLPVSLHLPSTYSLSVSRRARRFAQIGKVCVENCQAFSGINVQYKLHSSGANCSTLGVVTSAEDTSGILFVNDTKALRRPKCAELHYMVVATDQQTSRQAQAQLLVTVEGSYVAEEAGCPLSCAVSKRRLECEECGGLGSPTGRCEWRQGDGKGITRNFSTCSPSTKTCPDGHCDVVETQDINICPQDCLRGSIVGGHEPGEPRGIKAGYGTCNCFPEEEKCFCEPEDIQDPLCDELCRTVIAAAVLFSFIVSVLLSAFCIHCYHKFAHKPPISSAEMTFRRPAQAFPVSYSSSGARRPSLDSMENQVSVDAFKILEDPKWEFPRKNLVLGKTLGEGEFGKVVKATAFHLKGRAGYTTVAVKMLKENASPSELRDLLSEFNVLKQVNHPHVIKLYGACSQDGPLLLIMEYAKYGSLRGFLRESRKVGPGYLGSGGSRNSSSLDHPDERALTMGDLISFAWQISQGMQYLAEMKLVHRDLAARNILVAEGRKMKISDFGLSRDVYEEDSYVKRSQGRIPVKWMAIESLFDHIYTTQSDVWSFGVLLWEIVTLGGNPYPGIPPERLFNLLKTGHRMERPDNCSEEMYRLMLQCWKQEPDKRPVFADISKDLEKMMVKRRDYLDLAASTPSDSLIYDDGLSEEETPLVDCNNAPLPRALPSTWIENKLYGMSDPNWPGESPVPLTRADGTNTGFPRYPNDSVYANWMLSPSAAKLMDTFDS
- assayMethodText: Inhibition of human RET kinase-V804M mutant using RRRRRRRRRRRVYSTDYYRLFNPS as substrate in presence of [gamma33P]-ATP and 10 uM ATP by radiometric HotSpot assay
quantityMeasured: IC50

For "Cc1ccc(C(=O)Nc2ccc(CN3CCN(C)CC3)c(C(F)(F)F)c2)cc1C#Cc1cnc2ccc(OCCNC(C)C)nn12" the compound record lists IC50 as < 0.5 nM

For "Cc1ccc(C(=O)Nc2ccc(CN3CCN(C)CC3)c(C(F)(F)F)c2)cc1C#Cc1cnc2ccc(OCCN3CCOCC3)nn12" the compound record lists IC50 as < 0.5 nM

For "Cc1ccc(C(=O)Nc2cc(CN3CCN(C)CC3)cc(C(F)(F)F)c2)cc1C#Cc1cnc2ccc(Cl)nn12" the compound record lists IC50 as < 0.5 nM
